Biological target: minke whale NIS (wNIS) (Balaenoptera acutorostrata)
Sequence (A0A384B8D1 1-642): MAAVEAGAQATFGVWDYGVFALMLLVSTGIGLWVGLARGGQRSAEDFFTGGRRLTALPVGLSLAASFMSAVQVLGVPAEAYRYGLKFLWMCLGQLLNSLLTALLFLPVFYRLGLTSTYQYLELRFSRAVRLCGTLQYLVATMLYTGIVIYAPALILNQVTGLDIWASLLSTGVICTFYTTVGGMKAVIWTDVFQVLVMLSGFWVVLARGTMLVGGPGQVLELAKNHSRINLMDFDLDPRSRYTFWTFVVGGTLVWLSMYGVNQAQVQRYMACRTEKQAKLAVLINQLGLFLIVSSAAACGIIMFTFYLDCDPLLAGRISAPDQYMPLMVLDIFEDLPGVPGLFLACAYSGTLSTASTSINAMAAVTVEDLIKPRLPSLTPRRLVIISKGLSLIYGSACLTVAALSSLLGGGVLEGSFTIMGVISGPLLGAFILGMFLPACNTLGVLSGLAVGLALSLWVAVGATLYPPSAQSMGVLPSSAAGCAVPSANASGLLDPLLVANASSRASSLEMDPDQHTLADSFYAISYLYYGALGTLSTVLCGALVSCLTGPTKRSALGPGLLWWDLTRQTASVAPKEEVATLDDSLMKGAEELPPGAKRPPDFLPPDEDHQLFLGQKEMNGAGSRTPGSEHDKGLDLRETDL
Test: inhibition of […]mTcO4 uptake in transduced HeLa cells
Quantity: IC50 (nM)
Form entry: value (nM) — number only.

Log: minke whale NIS (wNIS) (Balaenoptera acutorostrata), molecule [O-][Cl+3]([O-])([O-])O [perchlorate] , IC50 = 2860

---

Target: UniProtKB Q92911
Sequence (Q92911 whole entry): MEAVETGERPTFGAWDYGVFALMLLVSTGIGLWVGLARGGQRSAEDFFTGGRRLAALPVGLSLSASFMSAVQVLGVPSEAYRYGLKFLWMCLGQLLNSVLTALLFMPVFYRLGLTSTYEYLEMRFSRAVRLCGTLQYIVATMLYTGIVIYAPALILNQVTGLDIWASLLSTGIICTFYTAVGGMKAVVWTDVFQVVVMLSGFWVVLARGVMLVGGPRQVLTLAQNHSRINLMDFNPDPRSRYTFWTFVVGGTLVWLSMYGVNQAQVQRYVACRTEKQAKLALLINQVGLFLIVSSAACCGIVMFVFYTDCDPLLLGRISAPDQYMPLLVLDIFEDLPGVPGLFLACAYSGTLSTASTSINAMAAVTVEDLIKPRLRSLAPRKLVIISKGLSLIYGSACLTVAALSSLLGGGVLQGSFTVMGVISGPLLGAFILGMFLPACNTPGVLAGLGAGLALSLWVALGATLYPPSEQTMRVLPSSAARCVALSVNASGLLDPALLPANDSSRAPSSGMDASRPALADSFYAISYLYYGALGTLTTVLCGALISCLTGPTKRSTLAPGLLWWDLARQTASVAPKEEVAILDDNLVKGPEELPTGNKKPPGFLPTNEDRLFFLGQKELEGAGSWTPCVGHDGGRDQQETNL
Experiment: inhibition of […]mTcO4 uptake in transduced HeLa cells
Quantity: IC50 (nM)
Form entry: value (nM) — number only.

Log: UniProtKB Q92911, molecule [O-][Cl+3]([O-])([O-])O [perchlorate] , IC50 = 195
